pIC50: −log10 of the molar value.
Record type: pIC50 measurement. Applies to: Gβ1γ2 (Homo sapiens, UniProt P62873)
Measurement type: pIC50

A: Nc1ccc(-c2ccc(Nc3cc(S(=O)(=O)O)c(N)c4c3C(=O)c3ccccc3C4=O)cc2)c(S(=O)(=O)O)c1 [compound 125910]
B: CC[N+](C)(CC)CCN1C(=O)c2ccccc2S1(=O)=O [compound 45126]
When their pIC50 values are compared, which is larger, A or B ? Give the label under which the chosen entry appears.
A
(A: 4.74, B: 4.16)

----------
Target: Gβ1γ2 (Homo sapiens)
Test: Competition ELISA with the high-affinity SIGK peptide
Details: read-out: Median Inhibitory Concentration IC50 (binding inhibitors of SIGK); competition with SIGK peptide in ELISA
Measurement type: IC50 (µM)

Here is how some molecules turned out for IC50.
>>> experimental_value("Cc1ccc(S(=O)(=O)OC2C(C3COC(C)(C)O3)OC3OC(C)(C)OC32)cc1 (stereo not shown)")
5.9
>>> experimental_value("Nc1cc(S(N)(=O)=O)ccc1SSc1ccc(S(N)(=O)=O)cc1N")
56.9
>>> experimental_value("O=C(O)[C@@H]1[C@H](C(=O)O)[C@]2(Cl)C(Cl)=C(Cl)[C@@]1(Cl)C2(Cl)Cl")
11.4

a: O=C1C(Cl)=C(Nc2ccc(S(=O)(=O)Nc3ccccn3)cc2)C(=O)c2ccccc21
b: C[N+]1(CCN[N+]2(C)CCCCC2)CCc2ccccc2C1 (stereo not shown)
c: Cc1cc(O)c(-c2cc(O)c(C)cc2O)cc1O
d: CN(CCc1ccccn1)c1ccc2c(c1)C(=O)c1ccccc1-2
Order these by IC50, descending, and give the full ranking. Would you mind listing the labels in the order requested?
d, b, a, c
(d: 292 µM, b: 59.1 µM, a: 35.4 µM, c: 7.1 µM)
